- protocolDetails: Uptake of CMZ in zebrafish muscle during 7-day water exposure
- Type: in vivo, zebrafish (Danio rerio)
- details: male, muscle/plasma, other: water exposure (waterborne), 1000 μg/L
recordedEndpoint: Kp at 7 d

// recorded Kp at 7 d for NC(=O)N1c2ccccc2C=Cc2ccccc21 [CMZ, Carbamazepine] : 0.54

----------
- protocolDetails: Uptake of CMZ in zebrafish muscle during 7-day water exposure
- Type: in vivo, zebrafish (Danio rerio)
- details: male, muscle, other: water exposure (waterborne), 10 μg/L
recordedEndpoint: concentration at 7 d (ng/g)
Kindly provide the numeric value in ng/g only, without the unit symbol.

// recorded concentration at 7 d for NC(=O)N1c2ccccc2C=Cc2ccccc21 [CMZ, Carbamazepine] : 35.4

----------
- protocolDetails: Uptake of CMZ in zebrafish muscle during 7-day water exposure
- Type: in vivo, zebrafish (Danio rerio)
- details: male, muscle/plasma, other: water exposure (waterborne), 10 μg/L
recordedEndpoint: Kp at 7 d

// recorded Kp at 7 d for NC(=O)N1c2ccccc2C=Cc2ccccc21 [CMZ, Carbamazepine] : 0.26

----------
- protocolDetails: Uptake of CMZ in zebrafish muscle during 7-day water exposure
- Assay type: in vivo, zebrafish (Danio rerio)
- details: male, muscle, other: water exposure (waterborne), 100 μg/L
recordedEndpoint: concentration at 7 d (ng/g)
Kindly provide the numeric value in ng/g only, without the unit symbol.

// recorded concentration at 7 d for NC(=O)N1c2ccccc2C=Cc2ccccc21 [CMZ, Carbamazepine] : 420

----------
- protocolDetails: Uptake of CMZ in zebrafish muscle during 7-day water exposure
- Assay type: in vivo, zebrafish (Danio rerio)
- details: male, muscle, other: water exposure (waterborne), 1000 μg/L
recordedEndpoint: concentration at 7 d (ng/g)
Kindly provide the numeric value in ng/g only, without the unit symbol.

// recorded concentration at 7 d for NC(=O)N1c2ccccc2C=Cc2ccccc21 [CMZ, Carbamazepine] : 2330

Origin of the recorded values: paper PMC10494213
